Cited source: patent US20100021987

# Experimental System: 6xHis-AtSUMO1-eGFP
Measurement Type: activity level (grade)

Protein	Measurement Type	Measured
Saccharomyces cerevisiae Ulp1 SUMO protease catalytic domain (protein) MGLVPELNEKDDDQVQKALASRENTQLMNRDNIEITVRDFKTLAPRRWLNDTIIEFFMKYIEKSTPNTVAFNSFFYTNLSERGYQGVRRWMKRKKTQIDKLDKIFTPINLNQSHWALGIIDLKKKTIGYVDSLSNGPNAMSFAILTDLQKYVMEESKHTIGEDFDLIHLDCPQQPNGYDCGIYVCMNTLYGSADAPLDFDYKDAIRMRRFIAHLILTDALKLEHHHHHH	activity level (grade)	++
Arabidopsis thalania ULP1c (AtULP1c) SUMO protease catalytic domain (protein) MVVEEACELPEGLPEDIYYPSSDQSDGRDLVQVSLKDLKCLSPGEYLTSPVINFYIRYVQHHVFSADKTAANCHFFNTFFYKKLTEAVSYKGNDRDAYFVKFRRWWKGFDLFCKSYIFIPIHEDLHWSLVIICIPDKEDESGLTIIHLDSLGLHPRNLIFNNVKRFLREEWNYLNQDAPLDLPISAKVWRDLPNMINEAEVQVPQQKNDFDCGLFLLFFIRRFIEEAPQRLTLQDLKMIHKKWFKPEEASALRIKIWNILVDLFRKGNQTDLEHHHHHH	activity level (grade)	-
human SENP1 (hSENP1) SUMO protease catalytic domain (protein) MASFPEITEEMEKEIKNVFRNGNQDEVLSEAFRLTITRKDIQTLNHLNWLNDEIINFYMNMLMERSKEKGLPSVHAFNTFFFTKLKTAGYQAVKRWTKKVDVFSVDILLVPIHLGVHWCLAVVDFRKKNITYYDSMGGINNEACRILLQYLKQESIDKKRKEFDTNGWQLFSKKSQIPQQMNGSDCGMFACKYADCITKDRPINFTQQHMPYFRKRMVWEILHRKLLEHHHHHH	activity level (grade)	+/-
